Quick list: YAP1 (% UTC) per entry.
Tested on: Yap1 mRNA
Experiment: Antisense inhibition of human Yap1 in SNU-449 cells by modified oligonucleotides, single dose (Example 5, RTS36584)
Type: cell-based
Conditions: Table 44 experiment; SNU-449 cells, 10,000 cells per well, free uptake, 2,000 nM, approximately 48 hours; RTS36584; Yap1 mRNA normalized to RIBOGREEN, relative to untreated control cells
Strand notation (5' to 3'): a small letter for the sugar, then the base; units joined by * are phosphorothioate-linked, units joined directly phosphodiester-linked; [ ] holds rarer units or linkages, { } end groups; capitals alone tell only the bases. e = 2'-O-(2-methoxyethyl) (MOE); k = constrained ethyl (cEt); [5mC] = 5-methylcytosine; d = 2'-deoxy (DNA)
Give just the number in % UTC; leave the unit off.

Examples from the recorded data:
Param item = 1198502 (kA*kG*dA*dT*dT*dT*dA*dG*dG*dA*dT*eG*k[5mC]*eA*kT*eG; antisense) [Compound 1198502] ; retrieve measured YAP1 (% UTC). 16

Could you do the same for 1198535 (kA*kA*dG*dT*dA*dA*dG*dG*dT*dT*dT*e[5mC]*k[5mC]*e[5mC]*kA*eG; antisense) [Compound 1198535] , please? 35

// next entry
Need YAP1 (% UTC), item 1198486 (antisense kA*kA*dG*d[5mC]*dA*d[5mC]*dT*dT*dT*dT*dA*e[5mC]*kA*eT*kT*eA) [Compound 1198486] 39

Values were extracted from patent US11214803B2.
